- Assay Protocol: Study MPKF: plasma pharmacokinetics of MDMA and MDA, single 120 mg MDMA·HCl, fasted/fed
- Assay type: in vivo, human
- Test Context: human, plasma, oral, 120 mg, both fed and fasted groups; read-out: mean elimination half-life
- Method: The MPKF was a Phase 1, open-label, randomized sequence, multi-dose, 2-period crossover food effect study in 16 healthy individuals. The MPKF study evaluated plasma concentrations of both MDMA and the active metabolite 3,4-methylenedioxyamphetamine (MDA). […] Sample Collection: Blood samples were collected at various time points up to 72 hours after dosing. The samples were analyzed using validated liquid chromatography-tandem mass spectrometry (LC-MS/MS) methods. […]
Result Type: half-life

> print(dat)
                                   compound  endpoint.result
1  CNC(C)Cc1ccc2c(c1)OCO2 (stereo not shown)         8 to 9 h

====

- Assay Protocol: Study MPKF: plasma pharmacokinetics of MDMA and MDA, single 120 mg MDMA·HCl, fasted/fed
- Format: in vivo, human
- Test Context: human, plasma, oral, 120 mg, fed treatment group; 24 h; read-out: PK plasma concentration, Median
Result Type: concentration at 24 h (ng/mL)

> print(dat)
                                   compound  endpoint.unit  endpoint.result
1  CNC(C)Cc1ccc2c(c1)OCO2 (stereo not shown)          ng/mL             41.4

====

- Assay Protocol: Study MPKF: plasma pharmacokinetics of MDMA and MDA, single 120 mg MDMA·HCl, fasted/fed
- Type: in vivo, human
- Test Context: human, plasma, po, 120 mg, Fed N = 11; 120 mg MDMA·HCl; preliminary; arithmetic mean; read-out: t1/2 (converted)
Result Type: half-life

> print(dat)
                                   compound  result.type  endpoint.result
1  CNC(C)Cc1ccc2c(c1)OCO2 (stereo not shown)    half-life          480 min

====

- Assay Protocol: Study MPKF: plasma pharmacokinetics of MDMA and MDA, single 120 mg MDMA·HCl, fasted/fed
- Format: in vivo, human
- Test Context: human, plasma, oral, 120 mg, fasted treatment group; 24 h; read-out: PK plasma concentration, Mean
Result Type: concentration at 24 h (ng/mL)

> print(dat)
                                   compound  endpoint.result
1  CNC(C)Cc1ccc2c(c1)OCO2 (stereo not shown)             50.1

====

- Assay Protocol: Study MPKF: plasma pharmacokinetics of MDMA and MDA, single 120 mg MDMA·HCl, fasted/fed
- Type: in vivo, human
- Test Context: human, plasma, oral, 120 mg, Fasted; read-out: AUC0-72, Geometric LSM
Result Type: AUC(0-t) (µg·h/mL)

> print(dat)
                                   molecule  endpoint.result
1  CNC(C)Cc1ccc2c(c1)OCO2 (centres unmarked)             3.36
2  CC(N)Cc1ccc2c(c1)OCO2 (centres unmarked)            0.312

====

- Assay Protocol: Study MPKF: plasma pharmacokinetics of MDMA and MDA, single 120 mg MDMA·HCl, fasted/fed
- Assay type: in vivo, human
- Test Context: human, plasma, oral, 120 mg, fasted treatment group; 2 h; read-out: PK plasma concentration, Geom. Mean
Result Type: concentration at 2 h

> print(dat)
                                   compound           result.type  endpoint.result
1  CNC(C)Cc1ccc2c(c1)OCO2 (stereo not shown)  concentration at 2 h        186 ng/mL
